- targetUnderTest: T1, recombinant human TL1A (human, UniProt O95150 71-251)
- T1 construct: The ELISA method says only 'recombinant TL1A' coated on plates; homotrimeric cytokine; also called TNFSF15; recombinant TL1A
- T1 chain: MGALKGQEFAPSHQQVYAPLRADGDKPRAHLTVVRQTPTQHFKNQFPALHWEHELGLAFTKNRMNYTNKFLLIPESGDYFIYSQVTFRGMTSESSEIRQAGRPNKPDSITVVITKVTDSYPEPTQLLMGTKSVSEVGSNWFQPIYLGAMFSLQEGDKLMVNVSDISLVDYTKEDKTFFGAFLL
- assayOverview: competition ELISA on coated recombinant TL1A; competitor biotinylated TL1A-0002
testReadout: Bioactivity relative to TL1A-0002 (fold)
Enter your answer as a number in fold; do not include the unit.

>  <binder>
TL1A-0258 (antibody, human IgG1, kappa, V domains shown, human IgG1 effector-function-minimized / human kappa) VH: QVQLVQSGAEVKKPGASVKVSCKASGYDYTYYGISWVRQAPGQGLEWMGWISTYNDNTHYAQKLQGRVTMTTDTSTSTAYMELRSLRSDDTAVYYCARESYYGSGAFRGGMDVWGQGTTVTVSS VL: DIQMTQSPSSLSASVGDRVTITCRASQSVSSYLAWYQQKPGKAPKLLIYDASNRATGVPSRFSGSGSGTDFTLTISSLQPEDFATYYCQQRSNWPWTFGQGTKVEIKR

>  <testReadout>
Bioactivity relative to TL1A-0002

>  <testValue>
2.2

$$$$
>  <binder>
TL1A-0288 (antibody, human IgG1, kappa, V domains shown, human IgG1 effector-function-minimized / human kappa) VH: QVQLVQSGAEVKKPGASVKVSCKASGYDFTYYGVSWVRQAPGQGLEWMGWISTYNTGTHYAPSLQGRVTMTTDTSTSTAYMELRSLRSDDTAVYYCARESYYGSGAFRGGMDVWGQGTTVTVSS VL: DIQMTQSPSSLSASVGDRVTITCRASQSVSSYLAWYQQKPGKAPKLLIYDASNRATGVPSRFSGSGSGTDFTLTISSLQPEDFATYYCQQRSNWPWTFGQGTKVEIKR

>  <testReadout>
Bioactivity relative to TL1A-0002

>  <testValue>
1.6

$$$$
>  <binder>
TL1A-0303 (antibody, human IgG1, kappa, V domains shown, human IgG1 effector-function-minimized / human kappa) VH: QVQLVQSGAEVKKPGASVKVSCKASGYDFTYYGIGWVRQAPGQGLEWMGWISTYNTGTHYAPSLQGRVTMTTDTSTSTAYMELRSLRSDDTAVYYCARESYYGSGAHRGGMDVWGQGTTVTVSS VL: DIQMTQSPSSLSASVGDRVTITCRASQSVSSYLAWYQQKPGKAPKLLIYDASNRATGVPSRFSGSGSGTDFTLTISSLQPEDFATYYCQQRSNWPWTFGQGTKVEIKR

>  <testReadout>
Bioactivity relative to TL1A-0002

>  <testValue>
3

$$$$
>  <binder>
TL1A-0252 (antibody, V domains shown, IgG1 effector-minimized/kappa) VH: QVQLVQSGAEVKKPGASVKVSCKASGYDFTYYGISWVRQAPGQGLEWMGWISTYNTNTHYAPSLQGRVTMTTDTSTSTAYMELRSLRSDDTAVYYCARESYYGSGAFRGGMDVWGQGTTVTVSS VL: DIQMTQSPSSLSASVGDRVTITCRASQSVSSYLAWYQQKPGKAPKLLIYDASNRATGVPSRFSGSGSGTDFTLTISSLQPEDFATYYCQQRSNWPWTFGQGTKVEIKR

>  <testReadout>
Bioactivity relative to TL1A-0002

>  <testValue>
2.7

$$$$

Qu. Which Bioactivity relative to TL1A-0002 value belongs to TL1A-0251 (antibody, V domains shown, IgG1 effector-minimized/kappa) VH: QVQLVQSGAEVKKPGASVKVSCKASGYDFTYYGISWVRQAPGQGLEWMGWISTYNTVTHYAPSLQGRVTMTTDTSTSTAYMELRSLRSDDTAVYYCARESYYGSGAHRGGMDVWGQGTTVTVSS VL: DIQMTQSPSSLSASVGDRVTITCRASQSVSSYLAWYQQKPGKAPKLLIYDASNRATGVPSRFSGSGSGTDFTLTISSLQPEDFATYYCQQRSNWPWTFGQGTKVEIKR ?
Ans. 3.2
